system: cancer cell lines; assay: Cancer cell proliferation activity (CellTiterGlo, 72 h); assay type: cell-based; details: Homo sapiens, RD, 72 h, RD cell line (muscle), 72 h; read-out: IC50
EXPERIMENTAL READOUT: IC50 (nM)

[[record]]
smiles_string = "C=C[C@]1(CO)O[C@@H](Nc2[nH]c(=O)ncc2Br)C[C@@H]1O"
result_value = 2670

[[record]]
smiles_string = "C[C@]1(CO)O[C@@H](n2cc(F)c(N)nc2=O)C[C@@H]1O"
result_value = 420

[[record]]
smiles_string = "COC[C@]1(CO)O[C@@H](n2cnc3c(N)nc(F)nc32)C[C@@H]1O"
result_value = 870


----------
tested on: cancer cell lines; test: Cancer cell proliferation activity (CellTiterGlo, 72 h); type: cell-based; settings: Homo sapiens, Ca-Ski, 72 h, CASKI cell line (cervical), 72 h; read-out: IC50
Rule: measured IC50 below 200 nM gets 1 (yes); anything equal to or greater than 200 nM gets 0 (no).

[[record]]
compound = "CC[C@]1(CO)O[C@@H](n2cnc3c(N)nc(F)nc32)[C@H](O)[C@@H]1O"
assigned_class = "1 (yes)"

[[record]]
compound = "CCC[C@]1(CO)O[C@@H](n2cnc3c(N)nc(F)nc32)C[C@@H]1O"
assigned_class = "1 (yes)"

[[record]]
compound = "CC(C)C[C@]1(CO)O[C@@H](n2cnc3c(N)nc(F)nc32)C[C@@H]1O"
assigned_class = "0 (no)"

[[record]]
compound = "O=c1[nH]c(=O)n([C@H]2C[C@H](O)[C@](CO)(CF)O2)cc1F"
assigned_class = "0 (no)"

[[record]]
compound = "C[C@]1(CO)O[C@@H](n2cnc3c(N)nc(F)nc32)C[C@@H]1O"
assigned_class = "0 (no)"

[[record]]
compound = "Cc1cn([C@H]2C[C@H](O)[C@@](C#N)(CO)O2)c(=O)[nH]c1=O"
assigned_class = "0 (no)"

[[record]]
compound = "Nc1ccn([C@@H]2O[C@H](CO)[C@@H](O)C2(F)F)c(=O)n1 [gemcitabine, reference compound]"
assigned_class = "1 (yes)"

[[record]]
compound = "C[C@]1(CO)O[C@@H](n2cc(F)c(=O)[nH]c2=O)C[C@@H]1O"
assigned_class = "0 (no)"

[[record]]
compound = "Nc1nc(F)nc2c1ncn2[C@H]1C[C@H](O)[C@](CO)(CF)O1"
assigned_class = "0 (no)"


----------
System: cancer cell lines
Assay: Cancer cell proliferation activity (CellTiterGlo, 72 h)
Type: cell-based
Settings: Homo sapiens, Calu-6, 72 h, CALU6 cell line (lung), 72 h; read-out: IC50
Protocol: Dose response relationships on cell proliferation was assessed for representative Compounds of the Disclosure on cancer cell lines. […] Cells were cultured in the appropriate media. […] After incubation for 72 h at 37° C. at 5% or 10% CO2 dependent on the medium, cell plates were equilibrated to room temperature for one hour, CellTiterGlo reagent (Promega) was added and luminescence was measured approximately an hour later using a luminometer. […]
EXPERIMENTAL READOUT: IC50

[[record]]
molecule = "CC[C@]1(CO)O[C@@H](n2cc(F)c(N)nc2=O)C[C@@H]1O [Cpd. No. 2]"
result_value = "> 50 µM"

[[record]]
molecule = "COC[C@]1(CO)O[C@@H](n2cnc3c(N)nc(F)nc32)C[C@@H]1O [Cpd. No. 140]"
result_value = "0.3 µM"

[[record]]
molecule = "C=C[C@]1(CO)O[C@@H](Nc2[nH]c(=O)ncc2Br)C[C@@H]1O [Cpd. No. 3]"
result_value = "6.06 µM"

